Target: T1, Activin B (Homo sapiens (Human), UniProt P09529 293-407)
T1 construct: also called Mature Activin B; mature Activin B
T1 sequence: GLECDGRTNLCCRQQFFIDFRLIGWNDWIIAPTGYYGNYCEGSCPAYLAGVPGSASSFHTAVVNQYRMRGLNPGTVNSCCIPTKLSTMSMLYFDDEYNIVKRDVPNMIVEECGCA
Test: ELISA, coated antigen, OD450
Decide by fold-change of OD 450 over negative control (BSA): equal to or exceeding 0.9 fold means true, less means false.

binder	category_label
AB346 (antibody, IgG1, V domains shown) VH: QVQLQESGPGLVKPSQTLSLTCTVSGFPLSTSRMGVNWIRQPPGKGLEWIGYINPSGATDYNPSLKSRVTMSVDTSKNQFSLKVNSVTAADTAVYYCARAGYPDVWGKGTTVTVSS VL: EIVMTQSPATLSLSPGERATLSCRASRSVSSDLAWYQQKPGQAPRLLIYDVSTRATGIPARFSGSGSGTDFTLTISSLEPEDFAVYYCQQYGSSLPPTFGGGTKVEIK	true
AB432 (antibody, IgG1, V domains shown) VH: QVQLQESGPGLVKPSQTLSLTCTVSGVSLSNVRMGVNWIRQPPGKGLEWIGYVNPSGSTDYNPSLKSRVTMSVDTSKNQFSLKVNSVTAADTAVYYCARAGYPDVWGKGTLVTVSS VL: EIVMTQSPATLSLSPGERATLSCRASQSISSSQLAWYQQKPGQAPRLLIYGASTRATGIPARFSGSGSGTDFTLTISSLEPEDFAVYYCQQYNDRPRTFGGGTKVEIK	true
AB843 (antibody, IgG1, V domains shown) VH: EVQLVQSGAEVKKPGASVKVSCKASGDTSSHSHIHWVRQAPGQGLEWMGWINPRSGATNYAQKLQGRGTMTTDPSTSTAYMELRSLRSDDTAVYYCARDRGGRTNGVGAFDIWGQGTMVTVSS VL: ESALTQPASVSGSPGQSITISCTGTSGDIGRYNYVSWYQQHPGKAPKLMIYEDIERPSGVSNRFSGSKSGNTASLTISGLQAEDEADYYCQVWDATLDLVFGGGTKLTVL	true
AB366 (antibody, IgG1, V domains shown) VH: QVQLQESGPGLVKPSQTLSLTCTVSGYSLTDARIGVNWIRQPPGKGLEWIGYINPSGRTDYNPSLKSRVTMSVDTSKNQFSLKVNSVTAADTAVYYCARAGYPDVWGKGTTVTVSS VL: DIQMTQSPSSVSASVGDRVTITCRASQTISRSLAWYQQKPGKAPKLLIYDASSLAGGVPSRFSGSGSGTDFTLTISSLQPEDFANYYCQQYSSYPSLFGGGTKVEIK	false
AB350 (antibody, IgG1, V domains shown) VH: QVQLQESGPGLVKPSQTLSLTCTVSGVSLSDARMGVNWIRQPPGKGLEWIGYVSTTGTTDYNPSLKSRVTMSVDTSKNQFSLKVNSVTAADTAVYYCARAGYPDVWGKGTLVTVSS VL: EIVMTQSPATLSLSPGERATLSCRASESVRSNLAWYQQKPGQAPRLLIYGASNRASGIPARFSGSGSGTDFTLTISSLEPEDFAVYYCQQYHTWPPWAFGGGTKVEIK	false
AB428 (antibody, IgG1, V domains shown) VH: EVQLVESGGGLVQPGGSLRLSCAASGFTSSNHWMSWVRQAPGKGLELVASIGPKGLGTYYPDSVKGRFTISRDNAKNSLYLQMNSLRAEDTAVYYCASIRDYGDKKGGSWFDPWGQGTLVTVSS VL: DIVMTQSPLSLPVTPGEPASISCRSSQSLLHSSGYNFLHWYLQKPGQSPQLLIYMATNRASGVPDRFSGSGSGTDFTLKISRVEAEDVGVYYCVQDLHTLPQFGGGTKVEIK	false
AB347 (antibody, IgG1, V domains shown) VH: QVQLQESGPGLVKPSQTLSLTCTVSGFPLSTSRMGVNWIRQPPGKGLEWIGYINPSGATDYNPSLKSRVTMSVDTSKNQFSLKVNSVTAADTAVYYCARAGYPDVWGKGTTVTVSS VL: EIVMTQSPATLSLSPGERATLSCRASQNIGHSLAWYQQKPGQAPRLLIYGASIRAPGIPARFSGSGSGTDFTLTISSLEPEDFAVYYCQQYITWPSTFGGGTKVEIK	true
AB438 (antibody, IgG1, V domains shown) VH: QVQLQESGPGLVKPSQTLSLTCTVSGVSLSNARLGVNWIRQPPGKGLEWIGYGSVTGSTDYNPSLKSRVTMSVDTSKNQFSLKVNSVTAADTAVYYCTTSYLVDTAMVTRWGQGTLVTVSS VL: EIVMTQSPATLSLSPGERATLSCRASQSLGTNLAWYQQKPGQAPRLLIYGASSRPSGIPARFSGSGSGTDFTLTISSLEPEDFAVYYCQQYDTHPLSFGGGTKVEIK	false
AB449 (antibody, IgG1, V domains shown) VH: QVQLQESGPGLVKPSQTLSLTCTVSGLSLSNAKMGVNWIRQPPGKGLEWIGYVSTTGTTDYNPSLKSRVTMSVDTSKNQFSLKVNSVTAADTAVYYCARAGYPDVWGKGTTVTVSS VL: DIQMTQSPSSVSASVGDRVTITCRASQGISRDLAWYQQKPGKAPKLLIYAASTLVSGVPSRFSGSGSGTDFTLTISSLQPEDFANYYCQQYVSAPPYTFGGGTKVEIK	false
AB326 (antibody, IgG1, V domains shown) VH: QVQLVQSGAEVKKPGASVKVSCKVSGYTFTSSAISWVRQAPGKGLEWMGGIYPGSGHTIYAQKFQGRVTMTEDTSTDTAYMELSSLKSEDTAVYYCAREGDIFVMDVWGLGTAVTVSS VL: DIQMTQSPSSVSASVGDRVTITCRASMDIRNDLAWYQQKPGKAPKLLIYDASKLETGVPSRFSGSGSGTDFTLTISSLQPEDFANYYCQQAKSFPPTFGGGTKVEIK	false

Reference source for all entries: patent US20250270304A1
